Assay: Multicomponent pharmacokinetics in rat plasma after i.v. safflower injection (SI)
Conditions: male, Sprague-Dawley, rat, plasma, iv

Smiles Input	half-life
O=C(O)[C@H]1O[C@@H](Oc2cc3oc(-c4ccc(O)cc4)cc(=O)c3c(O)c2O)[C@H](O)[C@@H](O)[C@@H]1O	≥ 2.58 h

* * *

Assay: Multicomponent pharmacokinetics in rat plasma after i.v. safflower injection (SI)
Conditions: male, Sprague-Dawley, rat, plasma, iv, 1 ml/kg
Description: The animal experiments were approved by the Animal Care and Use Committee of the College of Animal Science (College of Bee Science), Fujian Agriculture and Forestry University (Approval Number: PZCASFAFU21012). 250 ± 20 g of male Sprague-Dawley (SD) rats were provided by Lab Animal Center in Fujian Medical University (Fuzhou, China). Ten rats were divided into three groups (Low dose group, n = 4; medium and high groups, n = 3, respectively). […]

Compound	Unit Abbrev	Vd
O=C(O)/C=C/c1ccc(O)cc1 [p-CA, p-coumaric acid]	L/kg	0.11
